# Tested on: NCI-H2171;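 note: growth inhibition of human NCI-H2171 cells, read out by a cell viability assay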
# protocolDescription: cells
# Assay type: functional, cell-based
# setupConditions: Homo sapiens
# Description: SANGER: Inhibition of human NCI-H2171 cell growth in a cell viability assay.
In this section, each of the compounds is paired with its reported IC50.

Please review the following examples before continuing.
smilesStr	IC50
CCC1=C[C@@H]2CN(C1)Cc1c([nH]c3ccccc13)[C@@](C(=O)OC)(c1cc3c(cc1OC)N(C)[C@H]1[C@@](O)(C(=O)OC)[C@H](OC(C)=O)[C@]4(CC)C=CCN5CC[C@]31[C@@H]54)C2	> 0.064 µM
CCC(=O)N1CCN(c2ccc(-n3c(=O)ccc4cnc5ccc(-c6cnc7ccccc7c6)cc5c43)cc2C(F)(F)F)CC1	> 1.2 µM

Now, please, on to the next compound.
State the recorded IC50 for this entry: "CNC(=O)c1cc(Oc2ccc(NC(=O)Nc3ccc(Cl)c(C(F)(F)F)c3)cc2)ccn1"
2.4 µM

###

# Test system: D-247MG
# protocolDescription: cells
# Assay type: functional, cell-based, Homo sapiens
# setupConditions: Homo sapiens, D-247MG
# Description: SANGER: Inhibition of human D-247MG cell growth in a cell viability assay.
pIC50: −log10 of the molar value.
observedProperty: pIC50

Please review the following examples before continuing.
molecule	reportedResult
CN(Cc1cnc2nc(N)nc(N)c2n1)c1ccc(C(=O)N[C@@H](CCC(=O)O)C(=O)O)cc1 [METHOTREXATE]	< 6.70
O=c1cc(-c2cccc3c2Sc2ccccc2S3)oc(N2CCOCC2)c1 [KU-55933]	< 5.00
CN(c1ncccc1CNc1nc(Nc2ccc3c(c2)CC(=O)N3)ncc1C(F)(F)F)S(C)(=O)=O [PF-00562271]	< 5.59

Now, please, on to the next molecule.
State the recorded pIC50 for this entry: "CCOc1nc(NC(=O)Cc2cc(OC)ccc2OC)cc(N)c1C#N"
< 5.00

###

# Test system: LB2241-RCC;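 note: cell viability assay measuring how strongly the cultured human renal carcinoma line is prevented from growing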
# protocolDescription: cells
# Assay type: functional, cell-based, Homo sapiens
# setupConditions: Homo sapiens, LB2241-RCC
# Description: SANGER: Inhibition of human LB2241-RCC cell growth in a cell viability assay.
In this section, each of the compounds is paired with its reported IC50.

Please review the following examples before continuing.
compound	IC50
C=CCc1cccc(/C=N/NC(=O)CN2CCN(Cc3ccccc3)CC2)c1O	> 2560 nM
CN1CCN(CCOc2cc(OC3CCOCC3)c3c(Nc4c(Cl)ccc5c4OCO5)ncnc3c2)CC1	> 2000 nM
C=C1C(=O)O[C@@H]2C3O[C@]3(C)CC/C=C(\C)CC[C@@H]12 (stereo partly specified)	> 5000 nM
C[C@]1(O)C[C@@H](c2nc(-c3ccc4ccc(-c5ccccc5)nc4c3)c3c(N)nccn32)C1	> 2560 nM
CCC(=O)N1CCN(c2ccc(-n3c(=O)ccc4cnc5ccc(-c6cnc7ccccc7c6)cc5c43)cc2C(F)(F)F)CC1	> 1200 nM

Now, please, on to the next compound.
State the recorded IC50 for this entry: "O=C(c1cc(Cc2n[nH]c(=O)c3ccccc23)ccc1F)N1CCN(C(=O)C2CC2)CC1"
> 5000 nM

###

In this section, each of the compounds is paired with its reported IC50.
# Tested on: NCI-H1770;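 note: growth inhibition of NCI-H1770 cells determined with a viability readout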
# protocolDescription: cells
# Format: functional, cell-based
# setupConditions: Homo sapiens
# Description: SANGER: Inhibition of human NCI-H1770 cell growth in a cell viability assay.

Please review the following examples before continuing.
smilesStr	IC50
Cc1cc([C@@H](C)Nc2ccccc2C(=O)O)c2nc(N3CCOCC3)cc(=O)n2c1	> 5.12 µM
COC(=O)CNC(=O)C(=O)OC	> 4000 µM

Now, please, on to the next compound.
State the recorded IC50 for this entry: "Cc1ccc(Nc2nccc(N(C)c3ccc4c(C)n(C)nc4c3)n2)cc1S(N)(=O)=O"
> 8 µM

###

In this section, each of the compounds is paired with its reported pIC50.
# Test system: HT-3
# protocolDescription: cells
# Type: functional, cell-based, Homo sapiens
# setupConditions: Homo sapiens, HT-3
# Description: SANGER: Inhibition of human HT-3 cell growth in a cell viability assay.
pIC50: −log10 of the molar value.

compound	pIC50
Cn1cncc1[C@@](N)(c1ccc(Cl)cc1)c1ccc2c(c1)c(-c1cccc(Cl)c1)cc(=O)n2C [TIPIFARNIB]	< 4.80

Param readout= pIC50; system= HT-3; entry= "O=C1N=C(NCc2cccs2)S/C1=C\c1ccc2ncccc2c1" ; returns value.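 Note: growth inhibition measured with a cell viability readout.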
< 5.30

Next up: CN(c1ncccc1CNc1nc(Nc2ccc3c(c2)CC(=O)N3)ncc1C(F)(F)F)S(C)(=O)=O [PF-00562271]
< 5.59

###

In this section, each of the compounds is paired with its reported pIC50.
# Tested on: SK-N-FI;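 note: cell viability assay measuring growth inhibition of human SK-N-FI cells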
# protocolDescription: cells
# Assay type: functional, cell-based, Homo sapiens
# setupConditions: Homo sapiens, SK-N-FI
# Description: SANGER: Inhibition of human SK-N-FI cell growth in a cell viability assay.
pIC50: −log10 of the molar value.

compound	pIC50
CCC1=C[C@@H]2CN(C1)Cc1c([nH]c3ccccc13)[C@@](C(=O)OC)(c1cc3c(cc1OC)N(C)[C@H]1[C@@](O)(C(=O)OC)[C@H](OC(C)=O)[C@]4(CC)C=CCN5CC[C@]31[C@@H]54)C2 [VINORELBINE]	< 7.19
C=C1C(=O)O[C@@H]2C3O[C@]3(C)CC/C=C(\C)CC[C@@H]12 (stereo partly drawn)	< 5.30

Now, please, on to the next compound.
State the recorded pIC50 for this entry: CN(c1ncccc1CNc1nc(Nc2ccc3c(c2)CC(=O)N3)ncc1C(F)(F)F)S(C)(=O)=O [PF-00562271]
< 5.59

###

# Test system: KP-N-YS;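 note: cell viability assay measuring inhibition of cell line growth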
# protocolDescription: cells
# Assay type: functional, cell-based
# setupConditions: Homo sapiens
# Description: SANGER: Inhibition of human KP-N-YS cell growth in a cell viability assay.
In this section, each of the compounds is paired with its reported IC50.

Please review the following examples before continuing.
smilesStr	IC50
CN1CCN(CCOc2cc(OC3CCOCC3)c3c(Nc4c(Cl)ccc5c4OCO5)ncnc3c2)CC1	> 2 µM
CCOc1nc(NC(=O)Cc2cc(OC)ccc2OC)cc(N)c1C#N	> 10 µM

State the recorded IC50 for this entry: "O=C(NOCC1CC1)c1ccc(F)c(F)c1Nc1ccc(I)cc1Cl"
> 10 µM

###

# System: TE-5
# protocolDescription: cells
# Type: functional, cell-based, Homo sapiens
# setupConditions: Homo sapiens, TE-5
# Description: SANGER: Inhibition of human TE-5 cell growth in a cell viability assay.
In this section, each of the compounds is paired with its reported pIC50.
API: returns pIC50 as number; meaning -log10 of concentration in mol/L.

smilesStr	reportedResult
CNC(=O)c1cc(Oc2ccc(NC(=O)Nc3ccc(Cl)c(C(F)(F)F)c3)cc2)ccn1	5.50
Cn1cncc1[C@@](N)(c1ccc(Cl)cc1)c1ccc2c(c1)c(-c1cccc(Cl)c1)cc(=O)n2C	4.93

Now, please, on to the next compound.
State the recorded pIC50 for this entry: "O=C(NOCC1CC1)c1ccc(F)c(F)c1Nc1ccc(I)cc1Cl"
5.07

###

# Tested on: TE-5
# protocolDescription: cells
# Type: functional, cell-based, Homo sapiens
# setupConditions: Homo sapiens, TE-5
pIC50: −log10 of the molar value.
observedProperty: pIC50

State the recorded pIC50 for this entry: "O=C1N=C(NCc2cccs2)S/C1=C\c1ccc2ncccc2c1"
< 5.30

Next up: CN(c1ncccc1CNc1nc(Nc2ccc3c(c2)CC(=O)N3)ncc1C(F)(F)F)S(C)(=O)=O [PF-00562271]
< 5.59

Next up: CC1=C2C[C@H]3[C@@H](CC=C4C[C@@H](O)CC[C@@]43C)[C@@H]2CC[C@]12O[C@@H]1C[C@H](C)CN[C@H]1[C@H]2C [CYCLOPAMINE]
< 4.80

Next up: O=C(/C=C/c1ccccc1)NC(NC(=S)Nc1cccc2cccnc12)C(Cl)(Cl)Cl (centres undefined) [SALUBRINAL]
< 4.80
